Biological target: UniProt:Q15119
Experiment: Inhibitory action of PDHK activity in vitro (kinase reaction, residual PDH activity measured)
Assay type: biochemical
Conditions: read-out: PDHK inhibitory activity IC50
ATTRIBUTE_MEASURED: IC50 (nM)
Report only the number, with the unit nM understood.

Some solved entries appear below for comparison.
NC(=O)c1cc(OCCN2CCCOC2=O)cc2c1-c1ccccc1C2(O)C(F)(F)F (stereo not shown) : 47
Cn1cc(-c2cc(OCCCc3nnn[nH]3)cc3c2-c2ccccc2C3(O)C(F)(F)F)cn1 (single isomer, unassigned) : 18

Req: Provide IC50, recorded with UniProt:Q15119, of CNC(=O)c1ccc(-c2ccc3c(c2)C(O)(C(F)(F)F)c2ccccc2-3)cc1Cl (stereo not shown)
Resp: 149

Req: Provide UniProt:Q15119 IC50 reading for COc1ccc(-c2ccc3c(c2)C(O)(C(F)(F)F)c2ccccc2-3)cc1 (stereo not shown) .
Resp: 779

====

compounds and their reported pIC50
Target: human PDHK2 (hPDHK2) (Homo sapiens (Human))
Assay: Inhibitory action of PDHK activity in vitro (kinase reaction, residual PDH activity measured)
Format: biochemical
Conditions: PDHK inhibitory activity (class symbol)
pIC50: −log10 of the molar value.

N#Cc1ccc2c(c1)C(O)(C(F)(F)F)c1ccccc1-2 (stereo not shown) : < 6.00

Req: Consider the compound C/C=C/c1cc(-c2cnn(C(CO)CO)c2)c2c(c1)C(O)(C(F)(F)F)c1ccccc1-2 (stereo not shown) . State its measured pIC50.
Resp: > 7.00

Req: Please give measured pIC50 of the following entry: CC(C)(C)CCc1cc(-c2cnn(C(CO)CO)c2)c2c(c1)C(O)(C(F)(F)F)c1ccccc1-2 (single isomer, unassigned) [compound 669]
Resp: > 7.00

Req: In one line, give reported pIC50 of the entry OCC(CO)(CO)n1cc(-c2cc(F)cc3c2-c2ccccc2C3(O)C(F)(F)F)cn1 (single isomer, unassigned; (+)) .
Resp: > 7.00

====

Target: human PDHK2 (hPDHK2) (Homo sapiens (Human), UniProt Q15119)
Assay: Inhibitory action of PDHK activity in vitro (kinase reaction, residual PDH activity measured)
Format: biochemical
Settings: PDHK inhibitory activity, class symbol of IC50
pIC50: −log10 of the molar value.
ATTRIBUTE_MEASURED: pIC50

// below: answered molecules
O=C(c1cc(-c2cncnc2)c2c(c1)C(O)(C(F)(F)F)c1ccccc1-2)N1CCCC1 (centres unmarked) : 6.00 to 7.00
OCC1(n2cc(-c3cc(F)cc4c3-c3ccccc3[C@]4(O)C(F)(F)F)cn2)CCCC1 (stereo in doubt) : > 7.00
CNC(=O)C1CCCN1C(=O)c1ccc2c(c1)C(O)(C(F)(F)F)c1ccccc1-2 (centres unmarked) : < 6.00
O=C(O)C1CN(C(=O)c2ccc3c(c2)C(O)(C(F)(F)F)c2ccccc2-3)C1 (centres unmarked) : < 6.00
O=C1CCCN1CCOc1cc(-c2cnn(CCO)c2)c2c(c1)C(O)(C(F)(F)F)c1ccccc1-2 (centres unmarked) : > 7.00

Req: Please report pIC50 for the following molecule: CN(CCOc1cc(-c2cncnc2)c2c(c1)C(O)(C(F)(F)F)c1ccccc1-2)C(=O)CO (centres unmarked)
Resp: > 7.00

Req: Give recorded pIC50. Cc1cc(C(=O)N2CCC2)cc2c1-c1ccccc1C2(O)C(F)(F)F (single isomer, unassigned) [compound 136]
Resp: > 7.00

Req: Give a short answer stating reported pIC50 for OCc1ccccc1-c1ccc2c(c1)C(O)(C(F)(F)F)c1ccccc1-2 (centres unmarked) .
Resp: < 6.00

Req: Note pIC50 for the molecule shown: CC(C)NC(=O)c1ccc2c(c1)-c1ccccc1C2(O)C(F)(F)F (centres unmarked)
Resp: < 6.00

Req: Read the entry CC(C)OC(=O)N1CCN(c2ccc3c(c2)C(O)(C(F)(F)F)c2ccccc2-3)CC1 (centres unmarked) and write its reported pIC50.
Resp: 6.00 to 7.00
